system: TO-N3 (biotin conjugate); test: pull-down binding Z-score (relative to library population); higher = stronger binding; conditions: RNA library: Library-2
READOUT_LABEL: pull-down binding Z-score
Just the number, please, no unit attached.

>  <SEQUENCE_ENTRY>
CUGUUGUGCCUAAUUCAGAG [hsa-mir-296]

>  <pull-down binding Z-score>
0.0489

$$$$
>  <SEQUENCE_ENTRY>
UGGAAGCUCCAGGUGCCAACCACCUGCCUCUA [hsa-mir-6731]

>  <pull-down binding Z-score>
0.231

$$$$

Which pull-down binding Z-score reading was recorded for the sequence UAGGCACGGCACUUGUGAAAGAUCAGAAGCUGGUGUUUG ? 0.0405

Repeat for the following sequence: CUUGGCUUCAAUUUACUCCCAGG [hsa-mir-4446] 0.101

Repeat for the following sequence: CUGAGGACAUGCAGUUUCAG [hsa-mir-7702] -0.651

Repeat for the following sequence: CCGCUAGUGGAAGAAGAUGGCGG [hsa-mir-6125] 0.547

Repeat for the following sequence: CGAGUCUCUGAAACUCUACAGAGAUUCG [IAV_invivo_NS1_NEP_8_Motif_12+IAV_invivo_NS1_NEP_8_Motif_12] -0.524

Repeat for the following sequence: GGGCGCCGGCGGCCGGGAGAUCCGCGCUUCCUGAAUCCCGGCCGGCCCGCCCGGCGCCC [hsa-mir-4497] 0.447

Repeat for the following sequence: AUGCUAAGUCCAUGGGCAAACAU [hsa-mir-5704] -0.088

Repeat for the following sequence: AGCCUCCAAACCUGUAGACAGGGUCAUGCAGUACUAGGGGCGAG [hsa-mir-4478] 0.546

Repeat for the following sequence: GACAGUGGUUGCCUACGGGUACGCUGCUUGUC 0.666

Repeat for the following sequence: GCCGCCACUAGAGGAGCUACUGUAGUAAUUGGAACAAGCAAAUUCUAUGGUGGUUGGC 0.89

Repeat for the following sequence: AGCUUCUACGUCAUUCAGCACUUGCU [hsa-mir-5706] -0.601

----------
system: G-clamp-N3 (biotin conjugate); test: pull-down binding Z-score (relative to library population); higher = stronger binding; conditions: RNA library: Library-1 (pre-miRNA loops + repeats)
READOUT_LABEL: pull-down binding Z-score
Just the number, please, no unit attached.

Recall the recorded pull-down binding Z-score for AGCUGGGUGGAGGCAGAGCU [hsa-mir-4291] with G-clamp-N3 (biotin conjugate) and state it. 1.95

Repeat for the following sequence: UUUCUAUAACUGGAUGAAA [hsa-mir-498] -0.372

Repeat for the following sequence: CUCUCCUCCAGCUCAGCUGGUCAGGAGAG [hsa-mir-3160-1] -0.259

Repeat for the following sequence: CAGCCAUGACCUGACCUUCUGUCUG [hsa-mir-4677] -0.499

Repeat for the following sequence: UGUAAGUUUGCGAUGAGACACUACA [hsa-mir-144] -0.844

Repeat for the following sequence: CGACUCCGUGGCAGAGUUCA [hsa-mir-3666] -1.1

Repeat for the following sequence: GGCUGCGUGCCACCCGGGCAGCU [hsa-mir-3194] 1.93

Repeat for the following sequence: GCUUCUGCGUUAUCUGGAAGG [hsa-mir-4706] -0.078

Repeat for the following sequence: UUUUGCAAUUUUUUAAUGACAAAA [hsa-mir-548t] -0.195

----------
test system: TO-3-N3-2 (biotin conjugate); assay: pull-down binding Z-score (relative to library population); higher = stronger binding; details: RNA library: Library-2
pull-down binding Z-score of -0.08 or higher: Criterion met. Under -0.08: Criterion not met.

Consider the worked cases shown below.
>  <SEQUENCE_ENTRY>
AUACUGGAGCAAUAGAUACAGUU [hsa-mir-3692]

>  <CLASS_NAME>
Criterion not met

$$$$
>  <SEQUENCE_ENTRY>
AUGUGAUUGCUGUCCCAAACUCAUGU [hsa-mir-135b]

>  <CLASS_NAME>
Criterion met

$$$$
>  <SEQUENCE_ENTRY>
GCGCUGCCAGAAACUGGCCGCGC [mismatch-UC]

>  <CLASS_NAME>
Criterion not met

$$$$
>  <SEQUENCE_ENTRY>
GUGGAUGGUUAUGUUCAC

>  <CLASS_NAME>
Criterion not met

$$$$
>  <SEQUENCE_ENTRY>
GCGCUUUAGGUCUACACGGGCCGAAGCUAACGCGUUAAGCGC [3-way model-5_mrRNA]

>  <CLASS_NAME>
Criterion met

$$$$
>  <SEQUENCE_ENTRY>
GGGCAGAAAUAGAUGGCCU [hsa-mir-4270]

>  <CLASS_NAME>
Criterion met

$$$$
>  <SEQUENCE_ENTRY>
UUGCUCACGGUAAGAAAAACAUGAGUAA [hsa-mir-8062]

>  <CLASS_NAME>
Criterion met

$$$$
>  <SEQUENCE_ENTRY>
GCACUGACUUGCUUUAGCACUCAAUUUGCUUUUGCUUGUCCUGACGGCGUAAAACACGUCUAUCAGUUACGUGC

>  <CLASS_NAME>
Criterion not met

$$$$

Dear colleague, could you confirm whether GCUGCACAAAAAGC [IAV_invivo_NP_5_Motif_13+IAV_invivo_NP_5_Motif_13] has pull-down binding Z-score at or above -0.08? Criterion not met

----------
tested on: TO-N3-2 (biotin conjugate); experiment: pull-down binding Z-score (relative to library population); higher = stronger binding; settings: RNA library: Library-2
pull-down binding Z-score of -0.6 or higher: condition met. Under -0.6: condition not met.

Consider the worked cases shown below.
>  <SEQUENCE_ENTRY>
GGUGGUAUUGUAGCUAUCGUAGUAACAUGCCUUGCC

>  <CLASS_NAME>
condition met

$$$$
>  <SEQUENCE_ENTRY>
GGUUCUCAGUCAGAACC [hsa-mir-6813]

>  <CLASS_NAME>
condition not met

$$$$
>  <SEQUENCE_ENTRY>
UGCACCAGUUCUGGCCGCUGGUGGA [hsa-mir-4683]

>  <CLASS_NAME>
condition met

$$$$
>  <SEQUENCE_ENTRY>
UCUUCUUGGAGUCAGGAAAA [hsa-mir-320d-2]

>  <CLASS_NAME>
condition met

$$$$

Dear colleague, could you confirm whether CAGAGGGGCUGGCAGUACUGCUCUG [hsa-mir-4649] has pull-down binding Z-score at or above -0.6? condition met

----------
test system: TO-N3 (biotin conjugate); experiment: pull-down binding Z-score (relative to library population); higher = stronger binding; settings: RNA library: Library-2
READOUT_LABEL: pull-down binding Z-score
Just the number, please, no unit attached.

Below: 4 sequences and their reported pull-down binding Z-score.
>  <SEQUENCE_ENTRY>
AAGUUAAUUUUCCUCUGGCUGUUAUGGCCAGUAACUU [SHAPE_invivo_SARS-CoV-2_Motif_506]

>  <pull-down binding Z-score>
-1.02

$$$$
>  <SEQUENCE_ENTRY>
CCUAAUGGAUGG [IAV_invivo_NA_6_Motif_15+IAV_invivo_NA_6_Motif_15]

>  <pull-down binding Z-score>
-0.777

$$$$
>  <SEQUENCE_ENTRY>
UUCCUUGUCUGUAGCCAUGUCUAUGGGCUCUUGAG [hsa-mir-571]

>  <pull-down binding Z-score>
0.461

$$$$
>  <SEQUENCE_ENTRY>
UAUUUCAAAAGACUAGAGGUAGGAAAUGAG [hsa-mir-3975]

>  <pull-down binding Z-score>
-0.42

$$$$

Now let's try a different one.
Which pull-down binding Z-score reading was recorded for the sequence GAUGAGUACGAACUUAUGUACUCAUU ? -1.25

----------
system: G-clamp-N3 (biotin conjugate); assay: pull-down binding Z-score (relative to library population); higher = stronger binding; details: RNA library: Library-1 (pre-miRNA loops + repeats)
READOUT_LABEL: pull-down binding Z-score
Just the number, please, no unit attached.

Below: 5 sequences and their reported pull-down binding Z-score.
>  <SEQUENCE_ENTRY>
AUGGCAUUUAAGGAUUGCUAU [hsa-mir-4477a]

>  <DATA_VALUE>
0.671

$$$$
>  <SEQUENCE_ENTRY>
GGCAUCUAGCACAGGCGGUAGAUGCU [hsa-mir-4486]

>  <DATA_VALUE>
0.983

$$$$
>  <SEQUENCE_ENTRY>
GGAUGGGAGACCUGACCCAUCC [hsa-mir-5195]

>  <DATA_VALUE>
0.74

$$$$
>  <SEQUENCE_ENTRY>
GCUCUAAUAAUUUAUUCUAAUAAUAAUUUAGAUC [hsa-mir-7976]

>  <DATA_VALUE>
-0.269

$$$$
>  <SEQUENCE_ENTRY>
AUAUUGACACUAUAACAAUAAUGUCAAUAU [hsa-mir-4795]

>  <DATA_VALUE>
0.669

$$$$

Now let's try a different one.
Which pull-down binding Z-score reading was recorded for the sequence CCUAGAGUCCAUUCUUUACUCUAGG [hsa-mir-4779] ? -0.507
